Measured values drawn from patent US20160264674A1 for this set.

Consider the following binders and their measured % residual binding after heat treatment (room temperature = 100%) readings.
# testSystem: T1, FLAG-tagged human APRIL (human, UniProt O75888 105-250, limits assumed)
# T1 construct: also called FLAG-tagged APRIL; FLAG-APRIL; not shown: FLAG tag
# T1 sequence (looked up): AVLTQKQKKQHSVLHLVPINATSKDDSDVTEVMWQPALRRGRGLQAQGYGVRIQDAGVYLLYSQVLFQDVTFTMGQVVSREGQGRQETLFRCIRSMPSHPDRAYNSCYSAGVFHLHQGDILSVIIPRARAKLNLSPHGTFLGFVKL
# assayOverview: FLAG-APRIL ELISA after 10 min at 70 °C, antibody at 3.16 µg/ml
parameterMeasured: % residual binding after heat treatment (room temperature = 100%)

binder="VH14_1.VL15 (antibody, human IgG4, V domains shown, VH14 with R72S; rest is human IgG4 (S241P, Kabat) and human kappa; also called 14_1.15; antibody 14_1.15) VH: QVQLVQSGAEVKKPGASVKVSCKASGYTFTSYVMHWVRQAPGQGLEWMGYINPYNDAPKYNEKFKGRVTMTSDTSASTAYMELSSLRSDDTAVYYCARGLGYALYYAMDYWGQGTTVTVSS VL: DIVMTQSPSTLSASVGDRVTITCKASQNVGNNVAWYQQKPGKAPKLLISSASNRDSGVPSRFSGSGSGTEFTLTISSLQPDDFATYFCQQYNIYPFTFGQGTKLEIK" unitssymbol=% valuereported=38
binder="VH14_1C.VL15 (antibody, human IgG4, V domains shown, VH14_1 with M70I; Rest is human IgG4 (S241P, Kabat) and human kappa; also called 14_1C.15) VH: QVQLVQSGAEVKKPGASVKVSCKASGYTFTSYVMHWVRQAPGQGLEWMGYINPYNDAPKYNEKFKGRVTITSDTSASTAYMELSSLRSDDTAVYYCARGLGYALYYAMDYWGQGTTVTVSS VL: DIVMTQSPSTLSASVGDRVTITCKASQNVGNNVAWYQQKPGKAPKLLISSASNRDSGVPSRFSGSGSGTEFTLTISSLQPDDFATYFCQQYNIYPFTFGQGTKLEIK" unitssymbol=% valuereported=99.4
binder="VH14_1D.VL15 (antibody, human IgG4, V domains shown, VH14_1 with T74K; Rest is human IgG4 (S241P, Kabat) and human kappa; also called 14_1D.15) VH: QVQLVQSGAEVKKPGASVKVSCKASGYTFTSYVMHWVRQAPGQGLEWMGYINPYNDAPKYNEKFKGRVTMTSDKSASTAYMELSSLRSDDTAVYYCARGLGYALYYAMDYWGQGTTVTVSS VL: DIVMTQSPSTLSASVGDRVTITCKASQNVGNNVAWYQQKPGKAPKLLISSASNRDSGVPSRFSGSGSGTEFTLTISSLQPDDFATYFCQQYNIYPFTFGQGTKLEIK" unitssymbol=% valuereported=84.3
